Provenance of the data: the antibiotic and cytotoxicity screens of Wong et al. (2023)

System: HepG2
PROCEDURE_TEXT: cytotoxicity call (relative viability < 0.9)
RUN_CONDITIONS: 10 µM
About 3,300 (8.5%) of roughly 39,000 compounds were called active. For the sample, actives were picked, then their nearest neighbours and some compounds at random.
Give your call using only these classes: Yes for active, No for inactive

Field: example entries. Status: answers known.
| MOLECULE_SMILES | GROUP_LABEL |
| --- | --- |
| C[C@H](CO)N1C[C@H](C)[C@@H](CN(C)C(=O)Nc2ccc(C(F)(F)F)cc2)OCCCC[C@H](C)Oc2ccc(NS(=O)(=O)c3cn(C)cn3)cc2C1=O | No |
| C[C@@H]1CCCCO[C@@H](CN(C)C(=O)Nc2ccc(C(F)(F)F)cc2)[C@H](C)CN([C@H](C)CO)C(=O)c2cc(N(C)C)ccc2O1 | Yes |
| NC(=O)C1CCOCC1 | No |

Task: Hello, I am checking results. What call was entered for Cc1noc(C)c1S(=O)(=O)Nc1ccc2c(c1)CC(=O)N([C@H](C)CO)C[C@@H](C)[C@@H](CN(C)S(=O)(=O)c1cccs1)O2 ?
Result: No

Task: What was the test verdict on C[C@@H]1CN([C@H](C)CO)C(=O)c2cccc(NC(=O)Nc3ccc(C(F)(F)F)cc3)c2O[C@H]1CN(C)Cc1ccc(C(F)(F)F)cc1 ?
Result: Yes

Task: Recorded test outcome, item C[C@@H]1CN([C@@H](C)CO)C(=O)c2cc(N(C)C)ccc2O[C@@H](C)CCCCO[C@@H]1CN(C)C(=O)Nc1ccc(C(F)(F)F)cc1
Result: Yes

Task: Lab log entry: C[C@H]1CN([C@@H](C)CO)C(=O)c2cccc(NC(=O)Nc3ccc(F)cc3)c2O[C@H]1CN(C)Cc1ccc(C(F)(F)F)cc1 — outcome as called in the assay?
Result: No

Task: Which outcome was entered for the compound C[C@H](CO)N1C[C@H](C)[C@H](CN(C)Cc2ccc(C(F)(F)F)cc2)Oc2c(NC(=O)Nc3ccc(C(F)(F)F)cc3)cccc2C1=O in this test?
Result: No

* * *

System: HepG2
PROCEDURE_TEXT: cytotoxicity call (relative viability < 0.9)
RUN_CONDITIONS: 10 µM
In all, about 39,000 compounds went through this assay and about 3,300 (8.5%) were called active. Only a selection was taken, and actives are over-represented in it overall.
QUANTITY_MEASURED: cytotoxicity call

| MOLECULE_SMILES | QUANTITY_MEASURED | RESULT |
| --- | --- | --- |
| C[C@H]1CN([C@@H](C)CO)C(=O)Cc2cc(NC(=O)Nc3ccc(C(F)(F)F)cc3)ccc2O[C@@H]1CN(C)Cc1ccc(C(F)(F)F)cc1 | cytotoxicity call | inactive |
| C[C@@H]1CN([C@H](C)CO)C(=O)Cc2cc(NC(=O)Nc3ccc(C(F)(F)F)cc3)ccc2O[C@H]1CN(C)Cc1ccc(C(F)(F)F)cc1 | cytotoxicity call | inactive |

* * *

Test system: HepG2
PROCEDURE_TEXT: cytotoxicity call (relative viability < 0.9)
RUN_CONDITIONS: 10 µM
The whole screen tested about 39,000 compounds, of which about 3,300 (8.5%) were called active. This excerpt belongs to a sample that is enriched for actives.
Your reply should match one of these outcome classes. active, inactive

Past entries and their recorded results:
| MOLECULE | GROUP_LABEL |
| --- | --- |
| C[C@H]1CCCCO[C@H](CN(C)CC2CCCCC2)[C@@H](C)CN([C@@H](C)CO)C(=O)c2cc(NC(=O)Nc3cccc4ccccc34)ccc2O1 | active |
| CN1C2CCC1CC(OC(=O)c1c[nH]c3ccccc13)C2.Cl (centres undefined) | inactive |
| C[C@H]1CN([C@@H](C)CO)C(=O)Cc2cc(NC(=O)Cn3cnnn3)ccc2O[C@H]1CN(C)CC1CC1 | inactive |

Task: So what was the verdict on C[C@@H]1CN([C@@H](C)CO)C(=O)c2cc(NC(=O)Nc3cccc4ccccc34)ccc2O[C@@H](C)CCCCO[C@H]1CN(C)CC1CCCCC1 in this test?
Result: active

Task: Dear colleague, could you share the recorded outcome for CC(C)c1cc(N2CC[C@@H](N)C2)nc(N)n1 when you have a moment?
Result: inactive

Task: Please state the recorded outcome for this molecule: C[C@@H]1CN([C@H](C)CO)C(=O)c2cccc(NC(=O)C3CCCCC3)c2O[C@@H]1CN(C)Cc1ccc(Oc2ccccc2)cc1
Result: inactive

Task: # fetch the recorded call for C[C@@H]1CCCCO[C@H](CN(C)CC2CCCCC2)[C@@H](C)CN([C@H](C)CO)C(=O)c2cc(NC(=O)Nc3cccc4ccccc34)ccc2O1 here
Result: active

Task: Entry C=CCN1C(=O)[C@]2(O[C@H](CCO)[C@@H]([Si](C)(C)c3ccc(OC)cc3)[C@@H]2C)c2cc(N3C(=O)c4cccc5cccc3c45)ccc21 : call = ?
Result: active

Task: Each molecule tested received a call. Report the one for C=CCN1C(=O)[C@@]2(O[C@@H](CCO)[C@H]([Si](C)(C)F)[C@H]2C)c2cc(N3C(=O)c4cccc5cccc3c45)ccc21 .
Result: inactive

Task: Recorded call for C[C@H](CO)N1C[C@H](C)[C@@H](CN(C)C)OCCCC[C@H](C)Oc2ccc(NC(=O)Nc3cccc4ccccc34)cc2C1=O ?
Result: inactive

Task: Entry C=CCN1C(=O)[C@]2(O[C@H](CCn3cc([C@H](O)c4ccccc4)nn3)[C@@H]([Si](C)(C)c3ccc(OC)cc3)[C@@H]2C)c2cc(N3C(=O)c4cccc5cccc3c45)ccc21 : call = ?
Result: inactive

Task: Would you mind telling me which call this test gave C[C@H]1CCCCO[C@H](CN(C)C)[C@@H](C)CN([C@@H](C)CO)C(=O)c2cc(NC(=O)Nc3cccc4ccccc34)ccc2O1 ?
Result: inactive

Task: Record request — test call for C[C@@H]1CN([C@H](C)CO)C(=O)c2cc(NC(=O)CCC(F)(F)F)ccc2O[C@@H](C)CCCCO[C@@H]1CN(C)Cc1ccc(Cl)c(Cl)c1
Result: active

Task: // outcome(item) with item = C=CCN1C(=O)[C@@]2(O[C@@H](CCO)[C@H]([Si](C)(C)c3ccc(OC)cc3)[C@H]2C)c2cc(N3C(=O)c4cccc5cccc3c45)ccc21
Result: active
